# Experimental Protocol: Plasma clearance in Beagle dog at 0.030 mg/kg, iv administered as infusion over 1 hr
# Assay type: ADME, organism-based, Canis lupus familiaris
# Design: dose 0.03 mg/kg, route intravenous
# Experimental Conditions: 0.03 mg/kg
Measured Property: clearance (mL/min/kg)

Record Smiles | Numeric Result
c1ccc(Cc2ncc3c(n2)CCNCC3)cc1 | 11.6

* * *

# Tested On: 5-hydroxytryptamine receptor 2C (Homo sapiens)
# Sequence (P28335 whole entry): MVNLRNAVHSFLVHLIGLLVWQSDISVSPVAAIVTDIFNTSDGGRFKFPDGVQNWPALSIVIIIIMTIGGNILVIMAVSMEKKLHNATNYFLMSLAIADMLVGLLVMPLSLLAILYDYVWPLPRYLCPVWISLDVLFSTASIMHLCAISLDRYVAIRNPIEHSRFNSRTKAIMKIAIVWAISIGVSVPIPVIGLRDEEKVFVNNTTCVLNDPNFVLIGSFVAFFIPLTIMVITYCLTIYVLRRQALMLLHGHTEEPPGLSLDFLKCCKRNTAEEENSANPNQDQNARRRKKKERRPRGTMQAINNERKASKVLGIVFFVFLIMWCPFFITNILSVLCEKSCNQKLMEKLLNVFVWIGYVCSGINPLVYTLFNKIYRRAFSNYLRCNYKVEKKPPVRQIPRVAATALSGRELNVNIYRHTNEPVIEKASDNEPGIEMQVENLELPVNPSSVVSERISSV
# Experimental Protocol: Agonist activity at human 5HT2C receptor expressed in Swiss mouse 3T3 cells with low expression increase of fluorescence based calcium mobilization by FLIPR assay
# Type: functional, cell-based
pEC50: −log10 of the molar value.
Measured Property: pEC50

Record Smiles | Numeric Result
c1ccc(CCc2ncc3c(n2)CCNCC3)cc1 | 5.32

* * *

# Tested On: 5-hydroxytryptamine receptor 2C (Homo sapiens)
# Experimental Protocol: Agonist activity at human 5HT2C receptor expressed in CHO-K1 cells assessed as increase of fluorescence based calcium mobilization by FLIPR assay
# Type: functional, cell-based

Record Smiles | EC50
c1ccc(CCCc2ncc3c(n2)CCNC3)cc1 | 1900 nM
c1ccc(CCc2ncc3c(n2)CCNCC3)cc1 | 110 nM
c1ccc(-c2ncc3c(n2)CNCC3)cc1 | 380 nM

* * *

# Experimental Protocol: Tmax in CD rat at 2 mg/kg, po administered as single dose
# Assay type: ADME, organism-based
# Set-up: dose 2 mg/kg, route oral
# Experimental Conditions: in vivo

Record Smiles | Tmax (min)
c1ccc(Cc2ncc3c(n2)CCNCC3)cc1 | 15

* * *

Measured Emax by item
# Tested On: 5-hydroxytryptamine receptor 2C (Homo sapiens)
# Experimental Protocol: Agonist activity at human 5HT2C receptor expressed in CHO-K1 cells assessed as increase of fluorescence based calcium mobilization by FLIPR assay relative to control
# Assay type: functional, cell-based

Record Smiles | Measure Unit | Emax
c1ccc(CCCc2ncc3c(n2)CCNC3)cc1 | % | 100
Clc1cccc(Cc2ncc3c(n2)CCNCC3)c1 | % | 56
Fc1cccc(Cc2ncc3c(n2)CCNCC3)c1 | % | 67
Cc1ccc(Cc2ncc3c(n2)CCNCC3)cc1 | % | 63
Cc1ccccc1Cc1ncc2c(n1)CCNCC2 | % | 70
C[C@H]1CNCCc2ccc(Cl)cc21 | % | 84
c1ccc(CCc2ncc3c(n2)CCNCC3)cc1 | % | 99
Fc1ccc(Cc2ncc3c(n2)CCNCC3)cc1 | % | 60
Fc1ccccc1Cc1ncc2c(n1)CCNCC2 | % | 65

Reference source: ChEMBL document CHEMBL1770110
